# protocol-description: Metabolic stability in liver microsomes (human)
# Type: in vitro ADME
# measurement-parameters: Human, 30 min, first line of pair
// returns rule not met unless Residual Amount (%) 30 min is strictly below 30%, in which case rule met

NC(=O)c1nn(CCO)c2c1CCc1cnc(Nc3cc(N4CCN5CCC[C@@H]5C4)ccc3OC(F)(F)F)nc1-2 [CPD02]    rule not met
[2H]C1([2H])N(C)C([2H])([2H])C([2H])([2H])N(c2ccc(OC(F)(F)F)c(Nc3ncc4c(n3)-c3c(c(C(N)=O)nn3CCO)CC4)c2)C1([2H])[2H] [CPD06]    rule not met
CN1CCN(c2ccc(OC(F)(F)F)c(Nc3ncc4c(n3)-c3c(c(C(N)=O)nn3CCO)CC4)c2)CC1 [NMS-P937, onvansertib, reference compound]    rule not met
[2H]C1([2H])CN(c2ccc(OC(F)(F)F)c(Nc3ncc4c(n3)-c3c(c(C(N)=O)nn3CCO)CC4)c2)C([2H])([2H])[C@H]2CCCN21 [CPD04]    rule met

Continue with the next compound.
Lookup: Regarding O=C(O)Cc1ccccc1Nc1c(Cl)cccc1Cl [Diclofenac, reference compound] , kindly confirm whether its Residual Amount (%) 30 min is beneath 30%.
Found: rule met

====

# protocol-description: in vivo
# measurement-parameters: mouse, in vivo, iv, 2 mg/kg
Below, each entry is listed alongside its reported clearance.
Please format your answer as a value with the unit trailing.

NC(=O)c1nn(CCO)c2c1CCc1cnc(Nc3cc(N4CCN5CCC[C@@H]5C4)ccc3OC(F)(F)F)nc1-2    81.7 mL/min/kg

# ---- query compound ----
Lookup: Reported clearance, compound NC(=O)c1nn(CCO)c2c1CCc1cnc(Nc3cc(N4CCN5CCC[C@H]5C4)ccc3OC(F)(F)F)nc1-2 : ____
Found: 79.1 mL/min/kg

====

# protocol-description: in vivo
# measurement-parameters: female, CD1, mouse, plasma, iv, 10 mg/kg
reported-property: half-life (h)
Kindly answer with a numeric value in h, unit omitted.

[2H]C1([2H])N(C)C([2H])([2H])C([2H])([2H])N(c2ccc(OC(F)(F)F)c(Nc3ncc4c(n3)-c3c(c(C(N)=O)nn3CCO)CC4)c2)C1([2H])[2H] [CPD06]    1.05

Lookup: Endpoint output: half-life of CN1CCN(c2ccc(OC(F)(F)F)c(Nc3ncc4c(n3)-c3c(c(C(N)=O)nn3CCO)CC4)c2)CC1 [NMS-P937, onvansertib, reference compound] . Value?
Found: 3.52

====

Measured Vd, listed per entry for reference.
# protocol-description: in vivo
# measurement-parameters: mouse, in vivo, iv, 2 mg/kg
Numeric answer only, unit L/kg assumed.

Lookup: State the recorded Vd for this entry: NC(=O)c1nn(CCO)c2c1CCc1cnc(Nc3cc(N4CCN5CCC[C@H]5C4)ccc3OC(F)(F)F)nc1-2 [CPD03]
Found: 4.29

Lookup: Now the same for NC(=O)c1nn(CCO)c2c1CCc1cnc(Nc3cc(N4CCN5CCC[C@@H]5C4)ccc3OC(F)(F)F)nc1-2 [CPD02]
Found: 3.05

====

Entries and their half-life at 2 µM
# protocol-description: Metabolic stability in liver microsomes (mouse)
# Type: in vitro ADME
# measurement-parameters: male, CD-1, pH 7.4; Mouse liver microsomes
Report the value in h with no unit label.

[2H]C1([2H])N(C)C([2H])([2H])C([2H])([2H])N(c2ccc(OC(F)(F)F)c(Nc3ncc4c(n3)-c3c(c(C(N)=O)nn3CCO)CC4)c2)C1([2H])[2H] [CPD06]    1.27

Continue with the compound presented below.
Lookup: Which half-life at 2 µM reading was recorded for the compound CN1CCN(c2ccc(OC(F)(F)F)c(Nc3ncc4c(n3)-c3c(c(C(N)=O)nn3CCO)CC4)c2)CC1 [NMS-P937, onvansertib, reference compound] ?
Found: 1.11

====

# protocol-description: Permeability and transporter substrate test in Caco-2 cells (ABBA)
# Assay type: in vitro ADME
# measurement-parameters: human, pH 7.4; Caco-2, A to B, 5 µM, 2 hours; read-out: Average Papp PappA-B
Papp A→B at 2 h, 5 µM by entry:
Express the reported value numerically, then name its unit.

COc1cc2nc(N3CCN(C(=O)c4ccco4)CC3)nc(N)c2cc1OC [Prazosin]    8.97 ×10⁻⁶ cm/s

Lookup: Need Papp A→B at 2 h, 5 µM, item C[C@H]1O[C@@H](O[C@H]2[C@@H](O)C[C@H](O[C@H]3[C@@H](O)C[C@H](O[C@H]4CC[C@@]5(C)[C@H](CC[C@@H]6[C@@H]5C[C@@H](O)[C@]5(C)[C@@H](C7=CC(=O)OC7)CC[C@]65O)C4)O[C@@H]3C)O[C@@H]2C)C[C@H](O)[C@@H]1O [Digoxin]
Found: 0.94 ×10⁻⁶ cm/s

Lookup: Then what about the compound NC(=O)c1nn(CCO)c2c1CCc1cnc(Nc3cc(N4CCN5CCC[C@@H]5C4)ccc3OC(F)(F)F)nc1-2 [CPD02] ?
Found: 7.83 ×10⁻⁶ cm/s

Lookup: Same question for CN1CCN(c2ccc(OC(F)(F)F)c(Nc3ncc4c(n3)-c3c(c(C(N)=O)nn3CCO)CC4)c2)CC1 [NMS-P937, onvansertib, reference compound] please.
Found: 6.09 ×10⁻⁶ cm/s

Lookup: Try [2H]C1([2H])N(C)C([2H])([2H])C([2H])([2H])N(c2ccc(OC(F)(F)F)c(Nc3ncc4c(n3)-c3c(c(C(N)=O)nn3CCO)CC4)c2)C1([2H])[2H] [CPD06] next.
Found: 5.18 ×10⁻⁶ cm/s

Lookup: # iterate: [2H]C1([2H])CN(c2ccc(OC(F)(F)F)c(Nc3ncc4c(n3)-c3c(c(C(N)=O)nn3CCO)CC4)c2)C([2H])([2H])[C@H]2CCCN21 [CPD04]
Found: 4.2 ×10⁻⁶ cm/s

Lookup: // query: CC(C)NCC(O)COc1cccc2ccccc12 (stereo not shown) [Propranolol]
Found: 22.3 ×10⁻⁶ cm/s

====

Catalogue of Residual Amount (%) 45 min values
# protocol-description: Metabolic stability in liver microsomes (mouse)
# Format: in vitro ADME
# measurement-parameters: Mouse, 45 min, first line of pair

O=C(O)Cc1ccccc1Nc1c(Cl)cccc1Cl [Diclofenac, reference compound]    51.87%

Lookup: Record request: Residual Amount (%) 45 min value, item [2H]C1([2H])N(C)C([2H])([2H])C([2H])([2H])N(c2ccc(OC(F)(F)F)c(Nc3ncc4c(n3)-c3c(c(C(N)=O)nn3CCO)CC4)c2)C1([2H])[2H]
Found: 64.96%

Lookup: # iterate: [2H]C1([2H])CN(c2ccc(OC(F)(F)F)c(Nc3ncc4c(n3)-c3c(c(C(N)=O)nn3CCO)CC4)c2)C([2H])([2H])[C@H]2CCCN21
Found: 34.10%

Lookup: Subsequent entry: NC(=O)c1nn(CCO)c2c1CCc1cnc(Nc3cc(N4CCN5CCC[C@@H]5C4)ccc3OC(F)(F)F)nc1-2
Found: 30.29%

Lookup: Now consider CN1CCN(c2ccc(OC(F)(F)F)c(Nc3ncc4c(n3)-c3c(c(C(N)=O)nn3CCO)CC4)c2)CC1 [NMS-P937, onvansertib, reference compound] and answer again.
Found: 61.60%

====

# protocol-description: in vivo
# measurement-parameters: female, CD1, mouse, plasma, iv, 2 mg/kg
reported-property: clearance (mL/min/kg)
Number in mL/min/kg, nothing else.

Lookup: Form field: reported clearance of CN1CCN(c2ccc(OC(F)(F)F)c(Nc3ncc4c(n3)-c3c(c(C(N)=O)nn3CCO)CC4)c2)CC1 [NMS-P937, onvansertib, reference compound]
Found: 95.7

====

# protocol-description: Metabolic stability in liver microsomes (human)
# Format: in vitro ADME
# measurement-parameters: Human liver microsomes
reported-property: half-life
A complete answer gives the number and then names the unit.

NC(=O)c1nn(CCO)c2c1CCc1cnc(Nc3cc(N4CCN5CCC[C@@H]5C4)ccc3OC(F)(F)F)nc1-2    21.4 min

Turning now to a further record.
Lookup: Quick one: half-life for [2H]C1([2H])CN(c2ccc(OC(F)(F)F)c(Nc3ncc4c(n3)-c3c(c(C(N)=O)nn3CCO)CC4)c2)C([2H])([2H])[C@H]2CCCN21 ?
Found: 20.9 min

====

# protocol-description: Metabolic stability in liver microsomes (mouse)
# Format: in vitro ADME
# measurement-parameters: Mouse liver microsomes
reported-property: half-life (min)
Write the answer as a number in min, unit excluded.

[2H]C1([2H])CN(c2ccc(OC(F)(F)F)c(Nc3ncc4c(n3)-c3c(c(C(N)=O)nn3CCO)CC4)c2)C([2H])([2H])[C@H]2CCCN21    31.9

Lookup: Query: half-life; subject: NC(=O)c1nn(CCO)c2c1CCc1cnc(Nc3cc(N4CCN5CCC[C@@H]5C4)ccc3OC(F)(F)F)nc1-2
Found: 31.5
